- Measured Target: GST-SNAP25 197 (UniProt P60880)
- Sequence (P60880 1-197 limits assumed): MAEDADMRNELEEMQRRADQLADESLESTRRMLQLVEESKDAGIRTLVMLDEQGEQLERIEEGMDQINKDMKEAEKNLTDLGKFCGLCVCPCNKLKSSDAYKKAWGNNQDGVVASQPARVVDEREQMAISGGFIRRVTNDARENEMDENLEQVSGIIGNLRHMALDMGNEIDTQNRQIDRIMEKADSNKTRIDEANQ
- Test Protocol: direct ELISA; A450 on GST-SNAP25 197 divided by A450 on GST-SNAP25 FL
Give measured Ratio 197/206 for each item. Keep answers brief.
Give bare numbers.

1) C14 (antibody, V domains shown) VH: EVKLVESGGGLVQPKGSLKLSCAASGFTFNTNAMNWVRQAPGKGLEWVARIRSKSDNYATYYADSVKDRFTISRDDSPSMLYLQMNNLKTEDTAMYYCVYGRSYGGLGYWGQGTLVTVSA VL: DIVLTQSPASLAVSLGQRATISCRASKSVSTSGYSYVHWYQQKPGQPPKLLIYLASNLESGVPARFSGSGSGTDFTLNIHPVEEEDAATYYCQHSRELPLTFGAGTKLELK : 953
2) C4 (antibody, V domains shown) VH: DVKLQESGPGLVKPSQSLSLTCTVTGYSITSDYAWNWIRQFPGNKLEWMGYISYSVGTRYNPSLKSRISITRDTSKNQFFLLLKSVTNEDTATYFCARKGEYGFAYWGQGTLVTVSA VL: DIVMTQSPASLAVSLGQRATISCRASKSVSTSGYSYMHWYQQKPGQPPKLLIYLASNLESGVPARFSGSGSGTDFTLNIHPVEEEDAATYYCQHSRELPLTFGAGTKLELK : 919

Now for another entry.
Input line: Look at this binder and give its reported Ratio 197/206. C16 (antibody, V domains shown) VH: EVQLQQSGAELARPGASVQMSCKAFGYTFTNYTMHWVRQRPGQGLEWIGFINPSSDYTNYNQKFKDKATLSADKSSSTAYMQLSSLTSEDSAVYYCARRIFYNGRTYAAMDYWGQGTSVTVSS VL: DIVMTQSPASLAVSLGQRATISCRASKSVSSSGYSYMHWYQQKPGQPPKLLIYLASNLESGVPARFSGSGSGTDFTLNIHPVEEEDAATYYCQHSRELPLTFGAGTKLELK
Output line: 996
